// provenance: PubChem BioAssay (NCI)

In this section, each of the molecules is paired with its reported TGI.
# System: SR leukemia
# assay.text: NCI tumour cell line growth inhibition, 48 h
quantity.name: TGI

[[record]]
molecule = "O=C(N/N=C1\\CCc2ccccc21)N/N=C1\\CCc2ccccc21"
target_or_test_system = "SR leukemia"
quantity_name = "TGI"
observed_value = "> 100 µM"

[[record]]
molecule = "CNS(=O)(=O)NN(C)S(=O)(=O)c1ccc(C)cc1"
target_or_test_system = "SR leukemia"
quantity_name = "TGI"
observed_value = "> 100 µM"

[[record]]
molecule = "Cn1cccc1C1CC(=O)N(CCC[Se]C#N)C1=O (stereo not given)"
target_or_test_system = "SR leukemia"
quantity_name = "TGI"
observed_value = "> 100 µM"

[[record]]
molecule = "Nc1nccc(C#Cc2cncnc2Nc2ccc(OCc3cccc(F)c3)c(Cl)c2)n1"
target_or_test_system = "SR leukemia"
quantity_name = "TGI"
observed_value = "> 25 µM"

[[record]]
molecule = "COc1ccc(C2=NN(c3ccc(S(N)(=O)=O)cc3)C(c3ccc(Cl)cc3)C2)c(O)c1 (stereo not given)"
target_or_test_system = "SR leukemia"
quantity_name = "TGI"
observed_value = "3.61 µM"

[[record]]
molecule = "Cc1cc2c(cc1-c1cc3c(cc1C)C(C(C)C)=C(O)C(=O)/C3=C\\Nc1cccc3c(N)cccc13)/C(=C/Nc1cccc3c(N)cccc13)C(=O)C(O)=C2C(C)C"
target_or_test_system = "SR leukemia"
quantity_name = "TGI"
observed_value = "> 100 µM"

[[record]]
molecule = "O=C(O)c1ccccc1/C=C1\\Cc2ccc3c(c2C1=O)CCCC3"
target_or_test_system = "SR leukemia"
quantity_name = "TGI"
observed_value = "61 µM"

[[record]]
molecule = "c1ccc(NC2(c3nnnn3C3CCCCC3)CCNCC2)cc1"
target_or_test_system = "SR leukemia"
quantity_name = "TGI"
observed_value = "36.1 µM"

[[record]]
molecule = "COC(=O)/C=C(\\S/C(=C(/c1ccccc1)n1cc(C(=O)OC)c(C(=O)OC)n1)c1ccccc1)C(=O)OC"
target_or_test_system = "SR leukemia"
quantity_name = "TGI"
observed_value = "32.6 µM"

[[record]]
molecule = "CSC(=S)Nc1cc(C)ccn1"
target_or_test_system = "SR leukemia"
quantity_name = "TGI"
observed_value = "> 100 µM"

[[record]]
molecule = "COC(=O)[C@H]1[C@H](OC(=O)[C@@H](OC)c2ccccc2)ON2CC[C@@H](OC(=O)c3ccccc3)[C@H]12"
target_or_test_system = "SR leukemia"
quantity_name = "TGI"
observed_value = "> 100 µM"

[[record]]
molecule = "CC[C@]12C=CCN3CC[C@]4(C(=C(C(=O)OC)C1)Nc1ccccc14)[C@@H]32"
target_or_test_system = "SR leukemia"
quantity_name = "TGI"
observed_value = "30.7 µM"

[[record]]
molecule = "CC1(C)CC(C2CC(C)(C)CC(C)(C)[C@H]2O)[C@@H](O)C(C)(C)C1 (stereo not given in full)"
target_or_test_system = "SR leukemia"
quantity_name = "TGI"
observed_value = "> 100 µM"

[[record]]
molecule = "CC(=O)NNc1nc(C)c(C(/C=C/c2ccc3c(c2)OCO3)=N/NC(=O)c2ccncc2)s1"
target_or_test_system = "SR leukemia"
quantity_name = "TGI"
observed_value = "> 100 µM"

[[record]]
molecule = "COC12c3ccccc3-c3ccccc3C1[C@@H](C(=O)O)[C@H]2C(=O)O (stereo not given in full)"
target_or_test_system = "SR leukemia"
quantity_name = "TGI"
observed_value = "> 10 µM"

[[record]]
molecule = "COc1ccc(Nc2nc3c(N)cc(C(F)(F)F)cc3nc2-c2ccccc2)cc1"
target_or_test_system = "SR leukemia"
quantity_name = "TGI"
observed_value = "> 100 µM"

[[record]]
molecule = "Nc1nc(SCC(=O)c2ccccc2)nc2nc3c(c(-c4ccccc4)c12)CCCC3"
target_or_test_system = "SR leukemia"
quantity_name = "TGI"
observed_value = "> 100 µM"

[[record]]
molecule = "COc1ccc2[nH]c3c(c2c1)CCc1ccccc1-3"
target_or_test_system = "SR leukemia"
quantity_name = "TGI"
observed_value = "> 100 µM"

[[record]]
molecule = "COc1cc2c(c(Br)c1N)-c1cc(Br)c(N)cc1C2=O"
target_or_test_system = "SR leukemia"
quantity_name = "TGI"
observed_value = "> 100 µM"

[[record]]
molecule = "COc1cc(O)c2c(=O)cc(C3(OC(C)=O)C=CC(OC4OC(CO)C(O)C(O)C4O)C=C3)oc2c1 (stereo not given)"
target_or_test_system = "SR leukemia"
quantity_name = "TGI"
observed_value = "> 100 µM"


----------
# Test system: NCI-H460 lung
# assay.text: NCI tumour cell line growth inhibition, 48 h; in the data active means GI50 below about 0.43 µM; inactive means the rest
Outcomes: Yes = active, No = inactive

[[record]]
compound = "Cn1cc(-c2csc(-c3cn(C)c4ncccc34)n2)c2ccccc21"
class_name = "Yes"

[[record]]
compound = "C/C=C(\\C)C(=O)O[C@@H]1C=CC(=O)O[C@H]1COC(=O)[C@H](C)O"
class_name = "No"

[[record]]
compound = "O=C1/C(=C\\c2ccccc2)CN(C(=O)c2ccccc2F)C/C1=C\\c1ccccc1"
class_name = "No"

[[record]]
compound = "Cn1cc(-c2nonc2-c2cn(C)c3ccc(Br)cc23)c2ccccc21"
class_name = "No"

[[record]]
compound = "CC(=O)[CH-]C(=O)c1ccccc1.CC(=O)[CH-]C(=O)c1ccccc1.[O-]Cc1cccs1.[O-]Cc1cccs1.[Ti+4]"
class_name = "No"

[[record]]
compound = "CC1(C)CCC(CN2CCN(c3ccc(C(=O)NS(=O)(=O)c4ccc(NCC5CCOCC5)c([N+](=O)[O-])c4)c(Oc4cnc5[nH]ccc5c4)c3)CC2)=C(c2ccc(Cl)cc2)C1"
class_name = "No"

[[record]]
compound = "COc1cc2c(cc1OCCCN1CCN(CCCOc3cc4c(cc3OC)C(=O)C3CCC[C@H]3C=N4)CC1)N=C[C@@H]1CCCC1C2=O (some centres undefined)"
class_name = "No"

[[record]]
compound = "OCCC#Cc1ccccc1C#Cc1ccccc1"
class_name = "No"

[[record]]
compound = "Cn1cccc1C1CC(=O)N(CCC[Se]C#N)C1=O (centres undefined)"
class_name = "No"


----------
In this section, each of the compounds is paired with its reported TGI.
# Test system: UO-31 renal
# assay.text: NCI tumour cell line growth inhibition, 48 h
quantity.name: TGI

[[record]]
compound = "O=C(NCCS(=O)(=O)N1C(=O)C2CCCN2C(=O)[C@@H]1Cc1ccccc1)OCc1ccccc1 (stereo partly specified)"
target_or_test_system = "UO-31 renal"
quantity_name = "TGI"
observed_value = "> 100 µM"

[[record]]
compound = "N=C1SCCS1"
target_or_test_system = "UO-31 renal"
quantity_name = "TGI"
observed_value = "> 100 µM"

[[record]]
compound = "[N-]=[N+]=NC1=C(N=[N+]=[N-])c2cccc3cccc(c23)C1=O"
target_or_test_system = "UO-31 renal"
quantity_name = "TGI"
observed_value = "> 100 µM"

[[record]]
compound = "CCOP(=O)(OCC)OC1CC(n2cnc3c(N(CC)CC)ncnc32)OC1CO[Si](C)(C)C(C)(C)C (stereo unspecified)"
target_or_test_system = "UO-31 renal"
quantity_name = "TGI"
observed_value = "35.4 µM"

[[record]]
compound = "NC1=NC(=O)[C@H](CSCc2ccccc2)N1C(=O)OCc1ccccc1"
target_or_test_system = "UO-31 renal"
quantity_name = "TGI"
observed_value = "> 100 µM"

[[record]]
compound = "Fc1cccc(C=NC23CC4CC(CC(C4)C2)C3)c1"
target_or_test_system = "UO-31 renal"
quantity_name = "TGI"
observed_value = "> 100 µM"


----------
In this section, each of the compounds is paired with its reported TGI.
# System: COLO 205 colon
# assay.text: NCI tumour cell line growth inhibition, 48 h
quantity.name: TGI

[[record]]
compound = "Fc1cccc(C=NC23CC4CC(CC(C4)C2)C3)c1"
quantity_name = "TGI"
observed_value = "> 100 µM"

[[record]]
compound = "CCOC(=O)/C(C#N)=N\\Nc1ccc(-n2c(C)nc3ccc(Br)cc3c2=O)cc1"
quantity_name = "TGI"
observed_value = "> 100 µM"

[[record]]
compound = "CCN1N=CSC12C(=O)N(c1ccccc1)C(=O)N2c1ccccc1 (stereo not given)"
quantity_name = "TGI"
observed_value = "> 100 µM"

[[record]]
compound = "C#CCSc1nnnn1-c1ccc(Br)c(C)c1"
quantity_name = "TGI"
observed_value = "84.3 µM"

[[record]]
compound = "COc1ccccc1NS(=O)(=O)c1cc(C(C)(C)C)ccc1OCCOc1ccc(C(C)(C)C)cc1S(=O)(=O)Nc1ccccc1OC"
quantity_name = "TGI"
observed_value = "> 100 µM"

[[record]]
compound = "CCOC(=O)/C(=C/c1c(-c2ccccc2)[nH]c2ccccc12)C(=O)c1ccc(Cl)cc1"
quantity_name = "TGI"
observed_value = "4.36 µM"

[[record]]
compound = "COC1(CCO)CC=CCC1(CCO)OC (stereo not given)"
quantity_name = "TGI"
observed_value = "> 100 µM"

[[record]]
compound = "Cc1ccc(NC(=O)c2cc(S(=O)(=O)N3CCNNC3=O)c(S)cc2Cl)cc1"
quantity_name = "TGI"
observed_value = "> 100 µM"

[[record]]
compound = "CC(=O)/C(=C\\n1c(=S)[nH]c2ccc([N+](=O)[O-])cc21)C(=O)Nc1ccccc1C"
quantity_name = "TGI"
observed_value = "> 100 µM"

[[record]]
compound = "CCOC(=O)C12CN(C34CC5CC(CC(C5)C3)C4)CC(C(=O)OCC)(C1=O)C(c1ccccc1)OC2c1ccccc1 (stereo not given)"
quantity_name = "TGI"
observed_value = "> 100 µM"

